B1: Pistol ribozyme (parent)
chain: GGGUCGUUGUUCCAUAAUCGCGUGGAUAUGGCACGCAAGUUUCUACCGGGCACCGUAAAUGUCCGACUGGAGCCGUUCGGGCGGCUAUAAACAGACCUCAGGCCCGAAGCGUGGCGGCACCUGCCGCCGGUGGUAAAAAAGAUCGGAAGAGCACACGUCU

# Variants of: B1
# TEST DESCRIPTION: aptazyme ON/OFF ratio, guanine; higher = stronger switching; co-transcriptional cleavage with and without guanine
ENDPOINT LABEL: aptazyme ON/OFF ratio
Give the figure by itself; no unit, no explanation.

In the examples that follow, each entry is paired with its recorded aptazyme ON/OFF ratio.
[[record]]
variant_code = "U7C G9U U11A C12U"
experimental_value = 1.39

[[record]]
variant_code = "U7A G9U U10C U11G C12A C13G"
experimental_value = 1.2

[[record]]
variant_code = "U7G U8C U10A C12A C13U"
experimental_value = 1.36

[[record]]
variant_code = "U7C U8C G9C U11A C12U"
experimental_value = 1.14

[[record]]
variant_code = "U7A U8A G9U C13A"
experimental_value = 1.16


Fill in: aptazyme ON/OFF ratio of U7G G9U U10C C12G C13G is ___ 1.22

Also check U7G U8C G9A U10G U11G C12U C13G 1.22
